# Substrate: O=C(CO)[C@H](O)[C@H](O)COP(=O)(O)O
# assay comment: coupled-enzyme spectrophotometric assay of RPE activity
# Format: biochemical, Escherichia coli
# test settings: Co2+ enzyme
quantity measured: kcat/Km (M⁻¹ s⁻¹)
Field format: number, assumed M⁻¹ s⁻¹, no unit text.

Reported kcat/Km for ALSE (D-allulose 6-phosphate 3-epimerase) (Escherichia coli K-12; DEL198-198) (protein) MKISPSLMCMDLLKFKEQIEFIDSHADYFHIDIMDGHFVPNLTLSPFFVSQVKKLATKPLDCHLMVTRPQDYIAQLARAGADFITLHPETINGQAFRLIDEIRRHDMKVGLILNPETPVEAMKYYIHKADKITVMTVDPGFAGQPFIPEMLDKLAELKAWREREGLEYEIEVDGSCNQATYEKLMAAGADVFIVGTSLFNHAENIDEAWRIMTAQILAAKSEVQPHAKTA : what is it?
86000
